system under test: PI3Kδ (Homo sapiens, UniProt O00329)
Construct: The protein is full length and co-expressed with untagged PIK3R1; GST; purchased Invitrogen PV5274
Sequence (O00329 whole entry): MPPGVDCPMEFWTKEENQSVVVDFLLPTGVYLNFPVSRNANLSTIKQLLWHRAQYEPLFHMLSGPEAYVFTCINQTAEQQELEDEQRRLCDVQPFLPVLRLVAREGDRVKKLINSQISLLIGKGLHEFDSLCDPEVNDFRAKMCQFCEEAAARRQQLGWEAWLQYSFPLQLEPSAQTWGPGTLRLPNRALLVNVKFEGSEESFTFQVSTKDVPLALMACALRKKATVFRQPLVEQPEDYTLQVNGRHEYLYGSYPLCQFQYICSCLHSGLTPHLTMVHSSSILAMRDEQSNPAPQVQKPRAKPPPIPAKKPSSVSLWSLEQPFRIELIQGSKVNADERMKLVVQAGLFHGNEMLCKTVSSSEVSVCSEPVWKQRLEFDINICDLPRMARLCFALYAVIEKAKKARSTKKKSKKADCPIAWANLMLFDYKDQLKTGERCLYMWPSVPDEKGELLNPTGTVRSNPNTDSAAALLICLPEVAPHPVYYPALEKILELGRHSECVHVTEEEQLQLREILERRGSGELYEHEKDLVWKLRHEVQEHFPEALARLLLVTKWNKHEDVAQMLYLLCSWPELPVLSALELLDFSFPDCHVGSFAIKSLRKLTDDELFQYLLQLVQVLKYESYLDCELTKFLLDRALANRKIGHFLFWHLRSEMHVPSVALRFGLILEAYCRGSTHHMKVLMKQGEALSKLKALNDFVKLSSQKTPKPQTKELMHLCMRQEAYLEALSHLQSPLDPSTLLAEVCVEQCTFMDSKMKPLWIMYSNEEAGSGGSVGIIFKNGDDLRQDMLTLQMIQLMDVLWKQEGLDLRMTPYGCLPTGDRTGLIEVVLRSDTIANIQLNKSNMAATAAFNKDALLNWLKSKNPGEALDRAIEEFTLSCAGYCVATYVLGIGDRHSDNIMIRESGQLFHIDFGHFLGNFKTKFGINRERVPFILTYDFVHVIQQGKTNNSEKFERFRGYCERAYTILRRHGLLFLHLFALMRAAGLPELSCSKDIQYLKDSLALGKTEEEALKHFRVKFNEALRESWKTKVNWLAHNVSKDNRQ
Sequence (P27986 whole entry partner): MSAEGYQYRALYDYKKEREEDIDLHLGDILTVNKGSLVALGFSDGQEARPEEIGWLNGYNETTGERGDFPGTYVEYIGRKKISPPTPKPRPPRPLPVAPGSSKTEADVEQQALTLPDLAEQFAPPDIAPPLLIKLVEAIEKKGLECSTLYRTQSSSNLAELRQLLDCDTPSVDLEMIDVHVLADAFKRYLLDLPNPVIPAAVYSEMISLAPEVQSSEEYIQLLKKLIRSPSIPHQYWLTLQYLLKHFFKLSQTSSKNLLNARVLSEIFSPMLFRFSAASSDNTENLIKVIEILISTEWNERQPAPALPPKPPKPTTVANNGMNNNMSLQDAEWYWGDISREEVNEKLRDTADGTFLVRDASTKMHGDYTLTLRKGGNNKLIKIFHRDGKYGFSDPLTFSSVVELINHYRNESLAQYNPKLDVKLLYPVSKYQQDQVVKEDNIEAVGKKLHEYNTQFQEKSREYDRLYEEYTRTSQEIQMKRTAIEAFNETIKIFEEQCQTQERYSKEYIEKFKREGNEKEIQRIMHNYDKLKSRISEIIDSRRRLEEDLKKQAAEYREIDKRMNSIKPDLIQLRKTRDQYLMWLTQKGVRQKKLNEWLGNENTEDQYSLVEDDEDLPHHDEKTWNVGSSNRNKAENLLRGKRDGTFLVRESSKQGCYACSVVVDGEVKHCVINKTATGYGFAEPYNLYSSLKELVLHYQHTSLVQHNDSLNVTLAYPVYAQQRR
assay overview: PI3Kδ inhibition, modified PIK3CD Adapta TR-FRET assay
Assay type: biochemical
conditions used: recombinant GST-tagged full length PIK3CD co-expressed with PIK3R1 (p85α); 2 μM ATP, 50 μM PIP2; read-out: PI3Kδ Inhibition (pIC50) (converted)
parameter: IC50 (nM)

Use the examples below as a reference point.
[
  {
    "compound": "Cc1c[nH]c2c(F)ccc(-c3ncc4c(n3)N3CCOCC3C(=O)N4Cc3ccc(S(C)(=O)=O)cc3)c12 (stereo not shown)",
    "IC50 / nM": 2000
  },
  {
    "compound": "CS(=O)(=O)c1ccc(CN2C(=O)C3COCCN3c3nc(-c4ccc5[nH]c(=O)[nH]c5c4)ncc32)cc1 (stereo not shown)",
    "IC50 / nM": 2510
  },
  {
    "compound": "Cc1ccccc1CNC(=O)CN1CC2COCCN2c2nc(-c3cccc4[nH]ccc34)ncc21 (stereo not shown)",
    "IC50 / nM": 31.6
  }
]

[I] O=C(CN1C[C@@H]2COCCN2c2nc(-n3c(C(F)F)nc4ccccc43)ncc21)NCC1CCOCC1
[II] CS(=O)(=O)c1ccc(CN2C(=O)C3COCCN3c3nc(-c4cccc(-n5cccn5)c4)ncc32)cc1 (stereo not shown)
Prompt: I would appreciate it if you could say which entry, I or II , has the lower IC50 value. Please indicate the selected item by its label.
Completion: I
(I: 20 nM, II: 501 nM)

[1] O=C(Cc1cccs1)N1CC2COCCN2c2nc(-c3cccc4[nH]ccc34)ncc21 (stereo not shown)
[2] O=C(CN1C[C@@H]2COCCN2c2nc(-c3cccc4[nH]ccc34)ncc21)Nc1ccncc1
Prompt: Rank 1 against 2 by their IC50 values and give the higher one. Please indicate the selected item by its label.
Completion: 2

====

system under test: PI3Kδ (Homo sapiens, UniProt O00329)
Construct: The protein is full length and co-expressed with untagged PIK3R1; GST; purchased Invitrogen PV5274
assay overview: PI3Kδ inhibition, modified PIK3CD Adapta TR-FRET assay
Format: biochemical
conditions used: recombinant GST-tagged full length PIK3CD co-expressed with PIK3R1 (p85α); 2 μM ATP, 50 μM PIP2; read-out: PI3Kδ Inhibition (pIC50) (converted)
parameter: IC50 (µM)

Use the examples below as a reference point.
[
  {
    "molecule": "CS(=O)(=O)c1ccc(CN2CC3COCCN3c3nc(-c4cnc5cc[nH]c5c4)ncc32)cc1 (stereo not drawn)",
    "unit abbrev": "µM",
    "IC50": 0.0631
  },
  {
    "molecule": "CS(=O)(=O)c1ccc(CN2C(=O)C3COCCN3c3nc(-c4cnc(N)nc4)ncc32)cc1 (stereo not drawn)",
    "unit abbrev": "µM",
    "IC50": 0.01
  },
  {
    "molecule": "CC(C)(O)CCN1C[C@@H]2COCCN2c2nc(-c3cccc4[nH]ccc34)ncc21",
    "unit abbrev": "µM",
    "IC50": 0.00794
  }
]

[1] O=C(CCN1CC2COCCN2c2nc(-c3cccc4[nH]ccc34)ncc21)NCc1ccco1 (stereo not drawn)
[2] CS(=O)(=O)Nc1ccc(-c2ncc3c(n2)N2CCOCC2C(=O)N3Cc2ccc(S(C)(=O)=O)cc2)cc1 (stereo not drawn)
Prompt: I would appreciate it if you could say which entry, 1 or 2 , has the lower IC50 value. Please indicate the selected item by its label.
Completion: 1
(1: 0.0126 µM, 2: 0.2 µM)
